# Measurement Target: DSTYK (human) (UniProt Q6XUX3)
# Sequence (Q6XUX3 whole entry, looked up): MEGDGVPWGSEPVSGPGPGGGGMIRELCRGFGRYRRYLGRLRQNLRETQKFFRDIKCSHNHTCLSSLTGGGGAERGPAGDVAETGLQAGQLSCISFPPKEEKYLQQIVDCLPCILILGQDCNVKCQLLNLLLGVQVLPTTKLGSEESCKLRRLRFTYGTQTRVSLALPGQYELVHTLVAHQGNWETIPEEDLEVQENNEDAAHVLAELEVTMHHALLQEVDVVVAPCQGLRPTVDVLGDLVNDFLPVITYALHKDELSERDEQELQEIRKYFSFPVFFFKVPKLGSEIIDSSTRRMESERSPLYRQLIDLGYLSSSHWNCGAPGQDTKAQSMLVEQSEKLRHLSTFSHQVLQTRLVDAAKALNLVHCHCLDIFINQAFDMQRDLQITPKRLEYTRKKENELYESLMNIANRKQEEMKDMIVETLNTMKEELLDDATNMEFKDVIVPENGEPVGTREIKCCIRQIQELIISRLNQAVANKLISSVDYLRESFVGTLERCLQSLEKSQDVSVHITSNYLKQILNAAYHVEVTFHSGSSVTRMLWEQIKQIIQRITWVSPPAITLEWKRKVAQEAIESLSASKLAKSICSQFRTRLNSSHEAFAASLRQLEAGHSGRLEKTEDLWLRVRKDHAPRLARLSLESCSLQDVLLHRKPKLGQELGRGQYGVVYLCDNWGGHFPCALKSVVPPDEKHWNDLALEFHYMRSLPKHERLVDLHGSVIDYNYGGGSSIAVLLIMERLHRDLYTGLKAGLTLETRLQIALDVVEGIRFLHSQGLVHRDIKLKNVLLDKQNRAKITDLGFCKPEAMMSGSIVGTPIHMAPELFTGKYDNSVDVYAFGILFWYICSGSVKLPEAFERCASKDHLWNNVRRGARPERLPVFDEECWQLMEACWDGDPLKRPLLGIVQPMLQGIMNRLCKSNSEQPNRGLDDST
# Assay Summary: radiometric filter-binding kinase assay, Kinase HotSpot
# Applied Conditions: compound 0.5 µM; ATP 10 µM
Value Type: residual activity (%)
# number only, unit % dropped from output

Quick check: residual activity of O=c1c(-c2ccc(F)cc2)c(-c2ccncc2)[nH]n1-c1ccc(Cl)cc1 ?
92.9

Okay, and O=C1NC(=O)c2cc(Nc3ccc(F)cc3)c(Nc3ccc(F)cc3)cc21 ?
95.6

How about N#CCCc1ccc2c(c1)-c1[nH]c3ccc([N+](=O)[O-])cc3c1CC(=O)N2 ?
67.1

One more compound: COc1cc2c(N3CCN(C(=O)Nc4ccc(OC(C)C)cc4)CC3)ncnc2cc1OCCCN1CCCCC1
92.7

Again, but for O=c1cc(N2CCOCC2)oc2c(-c3ccccc3)cccc12
113

Further, for COc1cc2c(cc1OC)-c1[nH]nc(Nc3cccc(F)c3)c1C2 ?
93.3

Likewise for COc1cc2ncnc(Nc3ccc(O)c(Br)c3)c2cc1OC ?
106

Check CCOc1cc2ncnc(Nc3cccc(Br)c3)c2cc1OCC too.
101

How about this compound: N/C(=N\N=C/c1ccc(-c2cccc([N+](=O)[O-])c2)o1)N[N+](=O)[O-]
95.4

Also need N#Cc1c(NC(=O)c2cccc3ccccc23)sc2c1CCCC2 , thanks.
100

Input CCCCc1c(-c2ccc(O)cc2)[nH]c2nccnc12
88.9

Lookup O=C1NC(=O)c2c1c1c3ccccc3[nH]c1c1[nH]c3cc(Br)ccc3c21
65.6

Then this compound: COc1cccc(-c2cc(=O)c3ccccc3o2)c1N
97.1

// next record O=C(O)c1ccc2c3c1cccc3c(=O)n1c3ccccc3nc21
103

Lookup N#C/C(=C1/Nc2ccccc2S1)c1ccnc(NCCc2cccnc2)n1
93.4

Here is the next compound: Cc1cc(Nc2nc(-c3ccccc3)nc3ccccc23)n[nH]1
86
